tested on: Mus musculus; assay: Toxicity in ovariectomized ICR mouse assessed as effect on tail bleeding time at 110.3 nmol/kg, po treated for 4 weeks measured after 90 mins of last treatment; assay type: organism-based; conditions: in vivo, 1.5 h
Residues, ends and D or L forms follow the SMILES beside them. *: point of attachment. Acetyl(estradiol-3-yloxy) = C[C@]12CC[C@@H]3c4ccc(OCC(=O)*)cc4CC[C@H]3[C@@H]1CC[C@@H]2O
A collection of compounds and their measured Time
Hey, just the number and the unit after it is fine.

Prompt: Suppose we examine the compound CC(C)[C@H](NC(=O)[C@H](CC(=O)O)NC(=O)CNC(=O)[C@H](CCCNC(=N)N)NC(=O)COc1ccc2c(c1)CC[C@@H]1[C@@H]2CC[C@]2(C)[C@@H](O)CC[C@@H]12)C(=O)O ({Acetyl(estradiol-3-yloxy)}-RGDV-OH) ; what Time value has been reported?
Completion: 577 s

Prompt: Suppose we examine the compound C[C@]12CC[C@@H]3c4ccc(OCC(=O)N[C@@H](CCCNC(=N)N)C(=O)NCC(=O)N[C@@H](CC(=O)O)C(=O)N[C@@H](CO)C(=O)N[C@@H](CCCNC(=N)N)C(=O)NCC(=O)N[C@@H](CC(=O)O)C(=O)N[C@@H](CO)C(=O)O)cc4CC[C@H]3[C@@H]1CC[C@@H]2O ({Acetyl(estradiol-3-yloxy)}-RGDSRGDS-OH) ; what Time value has been reported?
Completion: 559 s

Prompt: Suppose we examine the compound "C[C@]12CC[C@@H]3c4ccc(O)cc4CC[C@H]3[C@@H]1CC[C@@H]2O" ; what Time value has been reported?
Completion: 441 s

Prompt: Suppose we examine the compound C[C@]12CC[C@@H]3c4ccc(OCC(=O)N[C@@H](CCCNC(=N)N)C(=O)NCC(=O)N[C@@H](CC(=O)O)C(=O)N[C@@H](Cc5ccccc5)C(=O)N[C@@H](CCCNC(=N)N)C(=O)NCC(=O)N[C@@H](CC(=O)O)C(=O)N[C@@H](Cc5ccccc5)C(=O)O)cc4CC[C@H]3[C@@H]1CC[C@@H]2O ({Acetyl(estradiol-3-yloxy)}-RGDFRGDF-OH) ; what Time value has been reported?
Completion: 585 s

* * *

tested on: Mus musculus; test: Toxicity in ovariectomized ICR mouse assessed as spleen weight at 110.3 nmol/kg, po treated for 4 weeks measured after 1 day of last treatment; assay type: organism-based; conditions: in vivo, 24 h
Residues, ends and D or L forms follow the SMILES beside them. *: point of attachment. Succinyl(O17-estradiol) = C[C@]12CC[C@@H]3c4ccc(O)cc4CC[C@H]3[C@@H]1CC[C@@H]2OC(=O)CCC(=O)*; Acetyl(estradiol-3-yloxy) = C[C@]12CC[C@@H]3c4ccc(OCC(=O)*)cc4CC[C@H]3[C@@H]1CC[C@@H]2O
Observation type: Activity (g)
Provide only the numeric value, understood in g.

// known answers, use as guide
C[C@]12CC[C@@H]3c4ccc(O)cc4CC[C@H]3[C@@H]1CC[C@@H]2O : 0.144
C[C@]12CC[C@@H]3c4ccc(OCC(=O)N[C@@H](CCCNC(=N)N)C(=O)NCC(=O)N[C@@H](CC(=O)O)C(=O)N[C@@H](Cc5ccccc5)C(=O)N[C@@H](CCCNC(=N)N)C(=O)NCC(=O)N[C@@H](CC(=O)O)C(=O)N[C@@H](Cc5ccccc5)C(=O)O)cc4CC[C@H]3[C@@H]1CC[C@@H]2O ({Acetyl(estradiol-3-yloxy)}-RGDFRGDF-OH) : 0.131
C[C@]12CC[C@@H]3c4ccc(OCC(=O)N[C@@H](CCCNC(=N)N)C(=O)NCC(=O)N[C@@H](CC(=O)O)C(=O)N[C@@H](CO)C(=O)N[C@@H](CCCNC(=N)N)C(=O)NCC(=O)N[C@@H](CC(=O)O)C(=O)N[C@@H](CO)C(=O)O)cc4CC[C@H]3[C@@H]1CC[C@@H]2O ({Acetyl(estradiol-3-yloxy)}-RGDSRGDS-OH) : 0.133
C[C@]12CC[C@@H]3c4ccc(O)cc4CC[C@H]3[C@@H]1CC[C@@H]2OC(=O)CCC(=O)N[C@@H](CCCNC(=N)N)C(=O)NCC(=O)N[C@@H](CC(=O)O)C(=O)N[C@@H](Cc1ccccc1)C(=O)N[C@@H](CCCNC(=N)N)C(=O)NCC(=O)N[C@@H](CC(=O)O)C(=O)N[C@@H](Cc1ccccc1)C(=O)O ({Succinyl(O17-estradiol)}-RGDFRGDF-OH) : 0.135
C[C@]12CC[C@@H]3c4ccc(O)cc4CC[C@H]3[C@@H]1CC[C@@H]2OC(=O)CCC(=O)N[C@@H](CCCNC(=N)N)C(=O)NCC(=O)N[C@@H](CC(=O)O)C(=O)N[C@@H](CO)C(=O)O ({Succinyl(O17-estradiol)}-RGDS-OH) : 0.15

Prompt: Suppose we examine the compound CC(C)[C@H](NC(=O)[C@H](CC(=O)O)NC(=O)CNC(=O)[C@H](CCCNC(=N)N)NC(=O)COc1ccc2c(c1)CC[C@@H]1[C@@H]2CC[C@]2(C)[C@@H](O)CC[C@@H]12)C(=O)O ({Acetyl(estradiol-3-yloxy)}-RGDV-OH) ; what Activity value has been reported?
Completion: 0.133

Prompt: Suppose we examine the compound CC(C)[C@H](NC(=O)[C@H](CC(=O)O)NC(=O)CNC(=O)[C@H](CCCNC(=N)N)NC(=O)CCC(=O)O[C@H]1CC[C@H]2[C@@H]3CCc4cc(O)ccc4[C@H]3CC[C@]12C)C(=O)O ({Succinyl(O17-estradiol)}-RGDV-OH) ; what Activity value has been reported?
Completion: 0.149
